conditions: in isobutanol, 313.15 K
experimental-readout: solubility (mole fraction)
Keep the answer to the number alone.

Reported solubility (mole fraction) ( Cl.Cl.Fc1ccc(C(c2ccc(F)cc2)N2CCN(C/C=C/c3ccccc3)CC2)cc1 ) = 0.00462

----------
conditions: in isobutanol, 308.15 K
experimental-readout: solubility (mole fraction)

Reported solubility (mole fraction) ( Cl.Cl.Fc1ccc(C(c2ccc(F)cc2)N2CCN(C/C=C/c3ccccc3)CC2)cc1 ) = 0.00371

----------
details: in ethyl acetate, 313.15 K
experimental-readout: solubility (mole fraction)
Keep the answer to the number alone.

Reported solubility (mole fraction) ( Cl.Cl.Fc1ccc(C(c2ccc(F)cc2)N2CCN(C/C=C/c3ccccc3)CC2)cc1 ) = 0.00353
